target: UniProt Q00975
protocol: Fluorescent assay for CaV2.2 channels using potassium depolarization (VIPR/FLIPR)
Assay type: cell-based
testSettings: FLIPR data; inactivated state; read-out: CAv2.2 IC50 Inact.
pIC50: −log10 of the molar value.
In this section we review reported pIC50 values for a set of compounds.
readoutName: pIC50

- smilesRecord: "CC(C)([C@H]1C[C@@H](NS(=O)(=O)c2ccc(F)c(C(F)(F)F)c2)C1)S(=O)(=O)c1cc(F)cc(C(F)(F)F)c1"
  number: 6.05
- smilesRecord: "CC(C)([C@H]1C[C@@H](CNC(=O)c2ncc(C(F)(F)F)cc2S(C)(=O)=O)C1)S(=O)(=O)c1cccc(C(F)(F)F)c1"
  number: 6.35
- smilesRecord: "CC(C)([C@H]1C[C@H](NC(=O)c2ccc(F)c(Cl)c2)C1)S(=O)(=O)c1cc(F)cc(C(F)(F)F)c1"
  number: 6.77
- smilesRecord: "CC(C)([C@H]1C[C@H](NS(=O)(=O)c2ccc(F)c(Cl)c2)C1)S(=O)(=O)c1cc(F)cc(C(F)(F)F)c1"
  number: 6.04
- smilesRecord: "O=C(NC[C@H]1C[C@H](S(=O)(=O)c2cccc(OC(F)(F)F)c2)C1)c1ccc(C(F)(F)F)cc1"
  number: 6.52
- smilesRecord: "Cc1nc(C(F)(F)F)ccc1NC(=O)[C@H]1C[C@H](C(C)(C)S(=O)(=O)c2cccc(C(F)(F)F)c2)C1"
  number: 6.41

----------
In this section we review reported IC50 values for a set of compounds.
target: human α1H T-type channels (Homo sapiens, UniProt O95180)
protocol: T-type calcium channel block, whole cell patch clamp, α1H
testSettings: HEK cells stably expressing human α1H; mainly non-inactivated protocol; values above 10,000 nM represented as 10000
readoutName: IC50

- compound: "O=C(N[C@H]1CC[C@@](F)(S(=O)(=O)c2cccc(C(F)(F)F)c2)CC1)C1CCC(F)(F)CC1 [Compound 305]"
  readoutName: "IC50"
  result: "> 10 µM"
- compound: "CS(=O)(=O)c1cc(C(=O)N[C@H]2CC[C@@](F)(S(=O)(=O)c3cccc(C(F)(F)F)c3)CC2)cc(C(F)(F)F)n1 [Compound 273]"
  readoutName: "IC50"
  result: "> 10 µM"
- compound: "CC(C)(C)S(=O)(=O)c1ccsc1C(=O)N[C@H]1CC[C@H](CS(=O)(=O)c2cccc(C(F)(F)F)c2)CC1 [Compound 178]"
  readoutName: "IC50"
  result: "> 10 µM"

----------
target: UniProt Q13936
Sequence (Q13936 whole entry): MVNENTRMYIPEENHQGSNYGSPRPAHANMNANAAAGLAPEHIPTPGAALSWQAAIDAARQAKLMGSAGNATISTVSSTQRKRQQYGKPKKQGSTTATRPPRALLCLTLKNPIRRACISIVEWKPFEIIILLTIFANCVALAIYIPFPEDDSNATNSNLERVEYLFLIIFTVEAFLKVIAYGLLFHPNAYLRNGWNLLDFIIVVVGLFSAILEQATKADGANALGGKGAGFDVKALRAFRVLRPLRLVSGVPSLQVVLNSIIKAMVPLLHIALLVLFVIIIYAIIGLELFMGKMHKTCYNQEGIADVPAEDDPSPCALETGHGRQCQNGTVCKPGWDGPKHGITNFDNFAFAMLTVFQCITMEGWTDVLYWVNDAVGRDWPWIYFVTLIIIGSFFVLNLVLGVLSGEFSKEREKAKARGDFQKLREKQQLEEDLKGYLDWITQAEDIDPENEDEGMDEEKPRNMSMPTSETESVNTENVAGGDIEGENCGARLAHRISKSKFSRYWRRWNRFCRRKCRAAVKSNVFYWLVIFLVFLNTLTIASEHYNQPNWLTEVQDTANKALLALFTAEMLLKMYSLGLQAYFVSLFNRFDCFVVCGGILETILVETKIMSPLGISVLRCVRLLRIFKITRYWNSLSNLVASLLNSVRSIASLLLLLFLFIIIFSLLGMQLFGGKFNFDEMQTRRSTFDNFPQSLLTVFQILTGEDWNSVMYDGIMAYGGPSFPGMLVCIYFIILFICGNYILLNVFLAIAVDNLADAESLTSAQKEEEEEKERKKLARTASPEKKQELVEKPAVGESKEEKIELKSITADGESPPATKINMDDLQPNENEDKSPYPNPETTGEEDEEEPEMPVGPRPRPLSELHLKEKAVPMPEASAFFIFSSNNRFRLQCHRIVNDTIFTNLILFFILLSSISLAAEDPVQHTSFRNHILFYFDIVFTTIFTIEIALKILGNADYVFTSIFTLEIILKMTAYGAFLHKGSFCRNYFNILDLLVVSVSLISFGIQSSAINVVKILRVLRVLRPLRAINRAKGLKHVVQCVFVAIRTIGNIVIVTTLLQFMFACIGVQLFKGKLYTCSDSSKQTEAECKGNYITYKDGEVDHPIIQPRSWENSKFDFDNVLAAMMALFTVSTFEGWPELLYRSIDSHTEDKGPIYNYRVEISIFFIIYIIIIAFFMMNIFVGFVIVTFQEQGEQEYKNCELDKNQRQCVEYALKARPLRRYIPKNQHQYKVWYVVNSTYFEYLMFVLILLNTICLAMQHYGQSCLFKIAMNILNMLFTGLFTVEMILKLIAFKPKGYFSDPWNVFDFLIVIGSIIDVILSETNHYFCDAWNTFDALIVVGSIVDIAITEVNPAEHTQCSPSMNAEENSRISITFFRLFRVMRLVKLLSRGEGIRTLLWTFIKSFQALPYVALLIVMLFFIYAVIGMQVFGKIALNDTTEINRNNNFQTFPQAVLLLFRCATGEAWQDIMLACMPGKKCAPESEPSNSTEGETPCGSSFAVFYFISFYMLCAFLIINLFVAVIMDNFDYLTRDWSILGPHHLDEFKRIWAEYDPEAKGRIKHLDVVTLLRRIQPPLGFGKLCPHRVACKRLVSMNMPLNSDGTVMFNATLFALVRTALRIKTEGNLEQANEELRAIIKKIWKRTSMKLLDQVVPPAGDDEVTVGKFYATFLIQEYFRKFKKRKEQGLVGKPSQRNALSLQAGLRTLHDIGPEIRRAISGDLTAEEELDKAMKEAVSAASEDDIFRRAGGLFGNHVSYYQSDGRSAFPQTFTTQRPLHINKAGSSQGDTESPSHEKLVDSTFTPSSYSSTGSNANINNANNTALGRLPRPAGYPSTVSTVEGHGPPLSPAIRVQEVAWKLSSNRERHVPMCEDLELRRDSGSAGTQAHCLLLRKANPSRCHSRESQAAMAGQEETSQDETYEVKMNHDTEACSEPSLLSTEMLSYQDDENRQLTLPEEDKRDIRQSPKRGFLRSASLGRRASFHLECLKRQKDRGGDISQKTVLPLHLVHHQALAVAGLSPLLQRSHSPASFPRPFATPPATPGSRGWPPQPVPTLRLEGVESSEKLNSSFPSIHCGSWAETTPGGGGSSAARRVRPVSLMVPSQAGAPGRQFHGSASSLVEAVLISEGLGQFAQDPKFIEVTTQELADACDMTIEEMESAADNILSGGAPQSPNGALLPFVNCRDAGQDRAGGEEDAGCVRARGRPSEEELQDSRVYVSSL
Sequence (P54289 25-1103 partner): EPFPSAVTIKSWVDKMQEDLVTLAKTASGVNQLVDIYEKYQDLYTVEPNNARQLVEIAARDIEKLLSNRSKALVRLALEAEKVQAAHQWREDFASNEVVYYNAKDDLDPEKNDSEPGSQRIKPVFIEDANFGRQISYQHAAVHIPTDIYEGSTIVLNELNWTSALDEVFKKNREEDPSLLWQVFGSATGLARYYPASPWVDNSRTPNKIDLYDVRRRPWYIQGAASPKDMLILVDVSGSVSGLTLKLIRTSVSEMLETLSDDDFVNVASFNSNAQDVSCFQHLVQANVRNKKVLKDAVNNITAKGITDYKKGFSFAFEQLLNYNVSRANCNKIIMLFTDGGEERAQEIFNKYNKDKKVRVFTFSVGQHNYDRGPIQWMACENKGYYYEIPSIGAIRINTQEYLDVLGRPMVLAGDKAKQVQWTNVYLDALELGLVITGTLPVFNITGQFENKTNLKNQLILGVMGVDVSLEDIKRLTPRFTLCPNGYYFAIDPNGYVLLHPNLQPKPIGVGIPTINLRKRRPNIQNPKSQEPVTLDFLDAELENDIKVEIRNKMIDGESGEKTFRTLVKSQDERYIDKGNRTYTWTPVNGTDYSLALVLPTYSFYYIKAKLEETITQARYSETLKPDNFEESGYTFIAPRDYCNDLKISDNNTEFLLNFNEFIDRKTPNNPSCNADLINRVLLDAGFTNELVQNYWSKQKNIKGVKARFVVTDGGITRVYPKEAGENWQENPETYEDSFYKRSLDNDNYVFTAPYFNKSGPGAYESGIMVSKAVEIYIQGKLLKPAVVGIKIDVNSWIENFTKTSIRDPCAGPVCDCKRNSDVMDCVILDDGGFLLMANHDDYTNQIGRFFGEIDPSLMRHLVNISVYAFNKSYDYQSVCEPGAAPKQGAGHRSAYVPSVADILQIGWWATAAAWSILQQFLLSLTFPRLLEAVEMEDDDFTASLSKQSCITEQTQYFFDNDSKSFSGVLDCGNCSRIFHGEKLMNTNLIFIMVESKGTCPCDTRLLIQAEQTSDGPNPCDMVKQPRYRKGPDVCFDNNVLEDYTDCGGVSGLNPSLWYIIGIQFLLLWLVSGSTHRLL
Sequence (Q08289 whole entry partner): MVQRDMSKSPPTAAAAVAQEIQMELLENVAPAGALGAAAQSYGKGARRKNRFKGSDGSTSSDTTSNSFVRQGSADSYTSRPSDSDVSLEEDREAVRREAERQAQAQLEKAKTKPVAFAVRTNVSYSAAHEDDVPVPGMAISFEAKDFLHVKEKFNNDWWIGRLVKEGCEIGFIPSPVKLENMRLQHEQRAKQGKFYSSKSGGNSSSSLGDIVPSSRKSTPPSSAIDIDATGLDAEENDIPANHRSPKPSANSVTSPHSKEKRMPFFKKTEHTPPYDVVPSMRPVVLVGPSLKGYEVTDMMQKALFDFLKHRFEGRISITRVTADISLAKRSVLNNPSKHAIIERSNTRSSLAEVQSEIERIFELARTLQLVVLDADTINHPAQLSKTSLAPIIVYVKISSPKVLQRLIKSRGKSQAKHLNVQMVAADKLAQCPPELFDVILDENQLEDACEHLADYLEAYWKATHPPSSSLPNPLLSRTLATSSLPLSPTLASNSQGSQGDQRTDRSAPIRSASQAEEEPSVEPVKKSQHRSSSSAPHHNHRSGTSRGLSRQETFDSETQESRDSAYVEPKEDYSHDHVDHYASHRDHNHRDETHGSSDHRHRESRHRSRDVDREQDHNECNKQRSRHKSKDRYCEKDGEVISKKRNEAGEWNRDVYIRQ
protocol: FLIPR data, CAv1.2 channel blocking (Table 6)
Assay type: cell-based
testSettings: inactivated state, read-out: CAv1.2 IC50 Inact.
pIC50: −log10 of the molar value.

- compound: "CNC1(CC(=O)N[C@H]2C[C@H](C(C)(C)S(=O)(=O)c3cc(F)cc(C(F)(F)F)c3)C2)CCCCC1"
  resultModifier: "≤"
  pIC50: 5.00
- compound: "CC(C)([C@H]1C[C@H](NC(=O)c2ccnc(C(F)(F)F)n2)C1)S(=O)(=O)c1cc(F)cc(C(F)(F)F)c1"
  resultModifier: "≤"
  pIC50: 5.00
- compound: "CC(C)S(=O)(=O)c1cc(C(F)(F)F)cnc1C(=O)N[C@H]1C[C@@H](CC(C)(C)S(=O)(=O)c2cccc(C(F)(F)F)c2)C1"
  resultModifier: "="
  pIC50: 5.03
- compound: "CC(C)([C@H]1C[C@H](NC(=O)c2ccc(C(F)(F)F)cc2)C1)S(=O)(=O)c1cccc(C(F)(F)F)c1"
  resultModifier: "="
  pIC50: 5.65
- compound: "CC(C)(C[C@H]1C[C@H](NC(=O)c2ccc(OCC(F)(F)F)nc2)C1)S(=O)(=O)c1cccc(C(F)(F)F)c1"
  resultModifier: "="
  pIC50: 5.92
- compound: "CC(C)([C@H]1C[C@@H](NS(=O)(=O)c2ccc(F)c(Cl)c2)C1)S(=O)(=O)c1cccc(C(F)(F)F)c1"
  resultModifier: "="
  pIC50: 5.19
- compound: "CC(C)(C1CC(CNC(=O)c2ccc(C(F)(F)F)cc2S(C)(=O)=O)C1)S(=O)(=O)c1cccc(C(F)(F)F)c1 (centres unmarked)"
  resultModifier: "="
  pIC50: 5.38
- compound: "CC(C)S(=O)(=O)c1cc(C(F)(F)F)cnc1C(=O)N[C@H]1C[C@@H](C(C)(C)S(=O)(=O)c2cc(F)cc(C(F)(F)F)c2)C1"
  resultModifier: "="
  pIC50: 5.03
- compound: "CC(C)(C1CC(CNC(=O)c2cc(C(F)(F)F)n[nH]2)C1)S(=O)(=O)c1cccc(C(F)(F)F)c1 (centres unmarked) [Compound 614]"
  resultModifier: "="
  pIC50: 5.62
- compound: "O=C(NC[C@H]1C[C@H](S(=O)(=O)c2cccc(C(F)(F)F)c2)C1)c1ccc(C(F)(F)F)cc1"
  resultModifier: "="
  pIC50: 5.52
- compound: "O=C(NC[C@H]1C[C@H](S(=O)(=O)c2cc(F)cc(C(F)(F)F)c2)C1)c1ccc(OCC(F)(F)F)nc1"
  resultModifier: "="
  pIC50: 5.51
- compound: "CC(C)([C@H]1C[C@H](NC(=O)c2ccc(C(F)(F)F)cc2S(C)(=O)=O)C1)S(=O)(=O)c1cc(F)cc(C(F)(F)F)c1"
  resultModifier: "≤"
  pIC50: 5.00
- compound: "CC(C)([C@H]1C[C@@H](NC(=O)c2ccc(C(F)(F)F)cc2S(C)(=O)=O)C1)S(=O)(=O)c1cc(F)cc(C(F)(F)F)c1"
  resultModifier: "≤"
  pIC50: 5.00
- compound: "CC(C)([C@H]1C[C@@H](NC(=O)c2ccc(S(C)(=O)=O)cc2Cl)C1)S(=O)(=O)c1cccc(C(F)(F)F)c1"
  resultModifier: "≤"
  pIC50: 5.00

----------
target: N-type calcium channel subunits (α1B, α2δ, and β3a) (Homo sapiens, UniProt Q00975)
protocol: Block of Cav2.2 channel, whole cell voltage clamp, manual and PatchXpress
Assay type: cell-based
testSettings: Table 5; table follows Assay Example 3 (whole cell voltage clamp / PatchXpress); assay not given
In this section we review reported IC50 values for a set of compounds.
readoutName: IC50

- compound: "CS(=O)(=O)c1cc(C(F)(F)F)ccc1C(=O)N[C@H]1CC[C@@](F)(S(=O)(=O)c2cccc(C(F)(F)F)c2)CC1 [Compound 239]"
  readoutName: "IC50"
  result: "340 nM"
- compound: "O=C(N[C@H]1CC[C@@H](CS(=O)(=O)c2cccc(C(F)(F)F)c2)CC1)c1ccc(Cl)c(OC(F)(F)F)c1 [Compound 139]"
  readoutName: "IC50"
  result: "390 nM"
- compound: "CN(C(=O)CN[C@H]1CC[C@H](CS(=O)(=O)c2cccc(C(F)(F)F)c2)CC1)C(C)(C)C [Compound 115]"
  readoutName: "IC50"
  result: "650 nM"
- compound: "O=S(=O)(c1cccc(C(F)(F)F)c1)[C@H]1C[C@H](c2c[nH]c(-c3ccc(C(F)(F)F)cc3)n2)C1 [Compound 443]"
  readoutName: "IC50"
  result: "440 nM"
- compound: "O=C(NC[C@H]1C[C@H](S(=O)(=O)c2cc(F)cc(C(F)(F)F)c2)C1)c1ccc(OC(F)(F)F)cc1 [Compound 398]"
  readoutName: "IC50"
  result: "740 nM"
- compound: "CC(C)S(=O)(=O)c1cc(C(F)(F)F)cnc1C(=O)N[C@H]1CC[C@@H](S(=O)(=O)c2cccc(C(F)(F)F)c2)CC1 [Compound 339]"
  readoutName: "IC50"
  result: "220 nM"
- compound: "O=C1c2ccc(C(F)(F)F)cc2C(=O)N1C1CCC(F)(S(=O)(=O)c2cccc(C(F)(F)F)c2)CC1 (stereo not shown) [Compound 280]"
  readoutName: "IC50"
  result: "> 10000 nM"

----------
target: T-type calcium channel (Homo sapiens, UniProt O95180)
protocol: T-type channel blocking, FLIPR data (Table 6)
Format: cell-based
testSettings: CAv3.2, inactivated state, read-out: CAv3.2 IC50 Inact.
pIC50: −log10 of the molar value.
readoutName: pIC50

- smilesRecord: "CC(C)([C@H]1C[C@H](Nc2ccnc(C(F)(F)F)n2)C1)S(=O)(=O)c1cc(F)cc(C(F)(F)F)c1"
  number: 5.56
- smilesRecord: "CC(C)(C[C@H]1C[C@@H](NC(=O)c2ccc(Cl)cn2)C1)S(=O)(=O)c1cccc(C(F)(F)F)c1"
  number: 5.85
- smilesRecord: "O=S(=O)(c1cccc(OC(F)(F)F)c1)[C@H]1C[C@@H](CNc2ccnc(C(F)(F)F)n2)C1"
  number: 5.57
- smilesRecord: "CS(=O)(=O)c1cc(Cl)ccc1C(=O)NC[C@H]1C[C@H](S(=O)(=O)c2cccc(OC(F)(F)F)c2)C1"
  number: 5.61
- smilesRecord: "CC(C)([C@H]1C[C@H](C(=O)NCc2ccc(C(F)(F)F)nc2)C1)S(=O)(=O)c1cccc(C(F)(F)F)c1"
  number: 5.02
- smilesRecord: "CC(C)(C[C@H]1C[C@H](NC(=O)CC2(N)CCCCC2)C1)S(=O)(=O)c1cccc(C(F)(F)F)c1"
  number: 5.00
- smilesRecord: "CC(C)(C[C@H]1C[C@@H](NC(=O)c2ccc(Cl)cc2S(C)(=O)=O)C1)S(=O)(=O)c1cccc(C(F)(F)F)c1"
  number: 5.18
